Measured values drawn from paper PMC4969713 for this set.

procedureDetails: Pharmacokinetics in mice, IP
Type: in vivo
statedConditions: mouse, blood, 1 mg/kg

substanceSmiles: Cc1ccc2c(c1)c1c(n2CCc2ccccc2)CCN(C)C1
half-life (h): 1.35

###

procedureDetails: Metabolism in human liver S9 fraction
Format: in vitro ADME
statedConditions: human, liver S9 fraction, T1/2, +NADPH+UDPGA, 2μM

substanceSmiles: Cc1ccc2c(c1)c1c(n2CCc2ccccc2)CCN(C)C1
half-life at 2 µM: 58.9 min

###

system: UniProt:P28335
Sequence (P28335 33-458): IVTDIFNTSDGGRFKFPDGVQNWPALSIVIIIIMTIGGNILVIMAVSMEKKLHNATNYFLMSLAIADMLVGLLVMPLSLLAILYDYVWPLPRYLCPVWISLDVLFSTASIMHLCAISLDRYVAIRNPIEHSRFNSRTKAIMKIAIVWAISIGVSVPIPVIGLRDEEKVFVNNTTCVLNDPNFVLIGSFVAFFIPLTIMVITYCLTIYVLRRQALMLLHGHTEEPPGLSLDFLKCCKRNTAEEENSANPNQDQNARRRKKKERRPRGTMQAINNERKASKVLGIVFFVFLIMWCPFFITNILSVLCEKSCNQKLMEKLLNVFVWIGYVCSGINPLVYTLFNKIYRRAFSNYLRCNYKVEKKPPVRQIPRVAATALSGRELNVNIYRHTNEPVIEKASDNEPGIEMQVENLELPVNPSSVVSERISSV
procedureDetails: Radioligand binding competition, 5-HT2C
statedConditions: Ki

substanceSmiles: Cc1ccc2c(c1)c1c(n2CCc2ccccc2)CCN(C)C1
Ki: 1.2 to 2 nM
